Tested on: IL-13
RUN DESCRIPTION: SEB-stimulated cytokine release from human PBMC: IL-13
Type: cell-based
STATED CONDITIONS: SEB 1 ng/ml
RECORDED METRIC: EC50

Measured EC50 of O=C(NC(Cc1cc(=O)[nH]c2ccccc12)C(=O)O)c1ccc(Cl)cc1 (stereo not shown) [Rebamipide] : > 1000 µM

* * *

Tested on: IL-1α
RUN DESCRIPTION: SEB-stimulated cytokine release from human PBMC: IL-1α
Type: cell-based
STATED CONDITIONS: SEB 1 ng/ml
RECORDED METRIC: EC50

Value of measured EC50 for the entry O=C(NC(Cc1cc(=O)[nH]c2ccccc12)C(=O)O)c1ccc(Cl)cc1 (stereo not shown) [Rebamipide] : > 1000 µM
